QUANTITY: melting point

* COC(=O)C1(CCCCCCCCCCCCC2(C(=O)NC3CC3)CC2)CC1 [Example 34] | 50.6 to 53 °C
* O=C(O)C1(CCCCCCCCCCCCC2(C(=O)NC3CC3)CC2)CC1 [Example 35] | 95.3 to 97.7 °C
* NC(=O)C1(CCCCCCCCCCCCC2(C(=O)O)CC2)CC1 [Example 12] | 116.6 to 118.1 °C
* N#CC1(CCCCCCCCCCCCC2(C(=O)O)CC2)CC1 | 44.4 to 46.9 °C
* O=C(O)CC1(CCCCCCCCCCCC2(C(=O)O)CC2)CC1 [Example 30] | 75.3 to 78.9 °C

---

QUANTITY: melting point

- CS(=O)(=O)NC(=O)C1(CCCCCCCCCCCCC2(C(=O)O)CC2)CC1: 97.5 to 99.4 °C
- COCC1(CCCCCCCCCCCCC2(C(=O)O)CC2)CC1: 36.4 to 37.6 °C
- O=C(O)C1(CCCCCCCCCCCCC2(C(F)F)CC2)CC1: 54 to 54.8 °C
- O=C(O)CC1(CCCCCCCCCCC2(C(=O)O)CC2)CC1: 71.9 to 74.3 °C
- COC(=O)C1(CCCCCCCCCCCCC2(C(=O)NS(C)(=O)=O)CC2)CC1: 53.5 to 54.5 °C
- O=C(O)C1(CCCCCCCCCCCCC2(C(=O)NCCO)CC2)CC1: 81.1 to 83.8 °C
- O=C(NCCO)C1(CCCCCCCCCCCCC2(C(=O)NCCO)CC2)CC1: 112.5 to 113.5 °C
- CC(C)(CCCCCCCCCCCCC1(C(=O)O)CC1)C(=O)O: 85.6 to 86.7 °C
- N#CC1(CCCCCCCCCCCCC2(C#N)CC2)CC1: 45 to 46.9 °C
